condition.details: human gut metagenome, 24 h, 2 µM; also: call rule not given here

compound	Bacterial Biotransformation
CCN(CC)CCOCCOC(=O)C1(c2ccccc2)CCCC1.O=C(O)CC(O)(CC(=O)O)C(=O)O [CARBETAPENTANE CITRATE]	Compound NOT metabolized
O=C1NCC2(CCN(CCc3ccccc3)CC2)O1 [FENSPIRIDE]	Compound NOT metabolized
Cc1ccc(S(=O)(=O)NC(=O)NN2CCCCCC2)cc1 [TOLAZAMIDE]	Compound NOT metabolized
CC(C)OC(=O)C(C)(C)Oc1ccc(C(=O)c2ccc(Cl)cc2)cc1 [FENOFIBRATE]	Compound NOT metabolized
CC(Oc1c(Cl)cccc1Cl)C1=NCCN1 (stereo not given) [LOFEXIDINE]	Compound NOT metabolized
CCc1nc(N)nc(N)c1-c1ccc(Cl)cc1 [PYRIMETHAMINE]	Compound NOT metabolized
OCCOCCN1CCN(C2=Nc3ccccc3Sc3ccccc32)CC1 [QUETIAPINE]	Compound NOT metabolized
COC1=CC(=O)C[C@@H](C)[C@]12Oc1c(Cl)c(OC)cc(OC)c1C2=O [GRISEOFULVIN]	Compound metabolized
CCOc1ccc(NC(C)=O)cc1 [PHENACETIN]	Compound NOT metabolized
O=C(NCc1ccccc1)OCCO [BURAMATE]	Compound NOT metabolized
OC(CCN1CCCCC1)(c1ccccc1)C1CCCCC1 (stereo not given) [TRIHEXYPHENIDYL]	Compound metabolized
O=C(CCCN1CCC(O)(c2ccc(Cl)cc2)CC1)c1ccc(F)cc1 [HALOPERIDOL]	Compound NOT metabolized
COc1ccc2[nH]c([S+]([O-])Cc3ncc(C)c(OC)c3C)nc2c1 (stereo not given) [OMEPRAZOLE]	Compound metabolized
CN1CCC(=C2c3ccccc3CCc3cccnc32)CC1.O=C(O)/C=C\C(=O)O.O=C(O)/C=C\C(=O)O [AZATADINE MALEATE]	Compound NOT metabolized
COc1cc2nc(N(C)CCCNC(=O)C3CCCO3)nc(N)c2cc1OC (stereo not given) [ALFUZOSIN]	Compound NOT metabolized
CCOC(=O)[C@H](CCc1ccccc1)N[C@@H](C)C(=O)N1[C@H](C(=O)O)C[C@@H]2CCC[C@@H]21	Compound NOT metabolized
C=CCN1CC[C@]23c4c5ccc(O)c4O[C@H]2C(=O)CC[C@@]3(O)[C@H]1C5 [NALOXONE]	Compound NOT metabolized
Cc1ccccc1N1C(=O)c2cc(S(N)(=O)=O)c(Cl)cc2NC1C (stereo not given) [METOLAZONE]	Compound NOT metabolized
COCCc1ccc(OCC(O)CNC(C)C)cc1.COCCc1ccc(OCC(O)CNC(C)C)cc1.O=C(O)C(O)C(O)C(=O)O (stereo not given) [METOPROLOL TARTRATE]	Compound NOT metabolized
CCc1nn(CCCN2CCN(c3cccc(Cl)c3)CC2)c(=O)n1CCOc1ccccc1 [NEFAZODONE]	Compound metabolized
COc1ccc2[nH]c([S+]([O-])Cc3ncc(C)c(OC)c3C)nc2n1 (stereo not given) [TENATOPRAZOLE]	Compound metabolized
CC(=O)O[C@]1(C(C)=O)CC[C@H]2[C@@H]3C=C(Cl)C4=CC(=O)[C@@H]5C[C@@H]5[C@]4(C)[C@H]3CC[C@@]21C [CYPROTERONE ACETATE]	Compound metabolized
CCN(CC)CCNC(=O)c1cc(Cl)c(N)cc1OC [METOCLOPRAMIDE]	Compound NOT metabolized
CN1CCc2c(c3ccccc3n2Cc2ccccc2)C1.CN1CCc2c(c3ccccc3n2Cc2ccccc2)C1.O=S(=O)(O)c1cccc2c(S(=O)(=O)O)cccc12	Compound NOT metabolized
CCCc1nc2c(C)cc(-c3nc4ccccc4n3C)cc2n1Cc1ccc(-c2ccccc2C(=O)O)cc1	Compound metabolized
CC(CN1c2ccccc2Sc2ccccc21)N(C)C (stereo not given) [PROMETHAZINE]	Compound metabolized
CN1C(=O)CC(C)(c2ccccc2)C1=O (stereo not given) [METHSUXIMIDE]	Compound NOT metabolized
Cc1ccc(-c2cc(C(F)(F)F)nn2-c2ccc(S(N)(=O)=O)cc2)cc1 [CELECOXIB]	Compound NOT metabolized
COc1ccc(CCN(C)CCCC(C#N)(c2ccc(OC)c(OC)c2)C(C)C)cc1OC (stereo not given)	Compound NOT metabolized
N#Cc1ccc(C(c2ccc(C#N)cc2)n2cncn2)cc1 [LETROZOLE]	Compound NOT metabolized
COc1c(C)c2c(c(O)c1C/C=C(\C)CCC(=O)OCCN1CCOCC1)C(=O)OC2 [MYCOPHENOLATE MOFETIL]	Compound metabolized
COc1ccccc1OCC(O)CN1CCN(CC(=O)Nc2c(C)cccc2C)CC1 (stereo not given) [RANOLAZINE]	Compound NOT metabolized
C[C@@H](CO)NC(=O)[C@@H]1C=C2c3cccc4[nH]cc(c34)C[C@H]2N(C)C1.O=C(O)/C=C\C(=O)O [ERGONOVINE MALEATE]	Compound NOT metabolized
CNCCC(Oc1ccc(C(F)(F)F)cc1)c1ccccc1 (stereo not given) [FLUOXETINE]	Compound NOT metabolized
Cc1nc(-c2ccc(OCC(C)C)c(C#N)c2)sc1C(=O)O [FEBUXOSTAT]	Compound metabolized

###

assay.method.text: The drug is tested on Z-030 corresponding to mouse gut metagenome with ENA study accession number: PRJEB37062 and ENA sample accession number: ERS12561829 for biotransformation under anaerobic condition. The drug concentrations were measured over 9 timepoints collected between 0 and 24 hours of incubation by liquid-chromatography-coupled mass spectrometry (LC–MS)
condition.details: 2 µM

compound	Bacterial Biotransformation
Nc1nc2ccc(OC(F)(F)F)cc2s1 [RILUZOLE]	Compound NOT metabolized
CCCc1nc2c(C)cc(-c3nc4ccccc4n3C)cc2n1Cc1ccc(-c2ccccc2C(=O)O)cc1	Compound NOT metabolized
COC(=O)[C@H]1[C@H]2C[C@@H]3c4[nH]c5cc(OC)ccc5c4CCN3C[C@H]2C[C@@H](OC(=O)c2cc(OC)c(OC)c(OC)c2)[C@@H]1OC [RESERPINE]	Compound NOT metabolized
Clc1ccc(Cn2c(CN3CCCC3)nc3ccccc32)cc1 [CLEMIZOLE]	Compound NOT metabolized
CCc1nn(CCCN2CCN(c3cccc(Cl)c3)CC2)c(=O)n1CCOc1ccccc1 [NEFAZODONE]	Compound NOT metabolized
OCCOCCN1CCN(C2=Nc3ccccc3Sc3ccccc32)CC1 [QUETIAPINE]	Compound NOT metabolized
CC(C)(C)NC[C@H](O)COc1ccccc1C1CCCC1.CC(C)(C)NC[C@H](O)COc1ccccc1C1CCCC1.O=S(=O)(O)O [PENBUTOLOL SULFATE]	Compound NOT metabolized

###

condition.details: human gut metagenome, 24 h, 2 µM
Where a SMILES comes first, the peptide text is derived from it. [ ]: non-standard residue; d: D form. pGlu = O=C1CC[C@@H](C(=O)O)N1; Thz = O=C(O)[C@@H]1CSCN1

molecule	Bacterial Biotransformation
COc1ccc(CCN(C)CCCC(C#N)(c2ccc(OC)c(OC)c2)C(C)C)cc1OC (stereo unspecified)	Compound metabolized
O=C1CC[C@@H](C(=O)N2CSC[C@H]2C(=O)O)N1 [PIDOTIMOD] ([pGlu]-[Thz]-OH)	Compound NOT metabolized
CS(=O)(=O)O.O.O.O.O=C1Cc2cc(CCN3CCN(c4nsc5ccccc45)CC3)c(Cl)cc2N1 [ZIPRASIDONE MESYLATE]	Compound metabolized
COc1ccc2c3c1O[C@H]1C[C@@H](O)C=C[C@@]31CCN(C)C2	Compound NOT metabolized
CCN(CC)CC#CCOC(=O)C(O)(c1ccccc1)C1CCCCC1.Cl (stereo unspecified) [OXYBUTYNIN CHLORIDE]	Compound metabolized
Cc1ccc(S(=O)(=O)NC(=O)NN2CC3CCCC3C2)cc1 (stereo unspecified) [GLICLAZIDE]	Compound metabolized
CCOC(=O)[C@H](CCc1ccccc1)N[C@@H](C)C(=O)N1[C@H](C(=O)O)C[C@@H]2CCC[C@@H]21	Compound metabolized
OCCOCCN1CCN(C2=Nc3ccccc3Sc3ccccc32)CC1	Compound metabolized
CC(=O)OCC(=O)[C@@]12N=C(C)O[C@@H]1C[C@H]1[C@@H]3CCC4=CC(=O)C=C[C@]4(C)[C@H]3[C@@H](O)C[C@@]12C	Compound metabolized
Cc1ccc(-c2cc(C(F)(F)F)nn2-c2ccc(S(N)(=O)=O)cc2)cc1	Compound metabolized
Cc1nc(-c2ccc(OCC(C)C)c(C#N)c2)sc1C(=O)O	Compound metabolized
CC(CN(C)C)CN1c2ccccc2CCc2ccccc21.O=C(O)/C=C\C(=O)O (stereo unspecified) [TRIMIPRAMINE MALEATE]	Compound metabolized
CCc1nn(CCCN2CCN(c3cccc(Cl)c3)CC2)c(=O)n1CCOc1ccccc1	Compound metabolized
Cc1nc2n(c(=O)c1CCN1CCC(c3noc4cc(F)ccc34)CC1)CCCC2	Compound metabolized
COC(=O)[C@H]1[C@H]2C[C@@H]3c4[nH]c5cc(OC)ccc5c4CCN3C[C@H]2C[C@@H](OC(=O)c2cc(OC)c(OC)c(OC)c2)[C@@H]1OC	Compound metabolized
CC(C)NCC(O)COc1ccc(COCCOC(C)C)cc1.CC(C)NCC(O)COc1ccc(COCCOC(C)C)cc1.O=C(O)/C=C/C(=O)O (stereo unspecified) [BISOPROLOL FUMARATE]	Compound metabolized
